assay: NCI Yeast Anticancer Drug Screen. Data for the cln2 rad14 strain (AID 165); details: S. cerevisiae cln2 rad14 strain, at 50.0 µM
This is part of a sample that, as a whole, favours compounds with a hit. Of some 79,000 tested, about 15% had one in any assay. Active and inactive are the calls of the source. No stated cut-off is given here; in the data, active means growth inhibition above about 70%; inactive means the rest.
Lab note: assign the record to one of active, inactive

Check out these entries, answers already filled in.
CC1CN1c1nc(N2CC2C)nc(N2CC2C)n1 (stereo unspecified) : inactive
CCOC(=O)C1(C#N)C(C#N)(C#N)C12CCCCC2 (stereo unspecified) (tested in a mixture with another compound) : inactive
O=CNNC(=O)C(Cl)Cl : inactive
C[N+](C)(C)Cc1ccc2ccccc2c1Br : inactive
O=C(Nc1cccc(Cl)c1)OCC(Cl)(Cl)Cl : active

Ask: So what was the verdict on Cn1c(O)c(C(=O)NC2CCCCC2)c(=O)n(C)c1=S in this test?
Result: inactive
